meta.source: paper PMC12198282

Tested on: human iPSC-derived 3D BrainSpheres
assay_explanation: BrainSphere MEA assay (HD-MEA, 13-day exposure, concentration-response)
Assay type: cell-based
test_context: tcplfit2 BMD at benchmark response (1.349*SD of baseline controls)
quantity: BMD Spheroid.Spike.Amplitude.90th.Percentile (µM)

1) CC1(C)[C@H](C(=O)O[C@H](C#N)c2cccc(Oc3ccccc3)c2)[C@@H]1C=C(Br)Br; 1.6
2) ClC1=C(Cl)[C@]2(Cl)[C@@H]3[C@@H]4C[C@@H]([C@H]5O[C@@H]45)[C@@H]3[C@@]1(Cl)C2(Cl)Cl; 17
3) Brc1ccc(Oc2ccc(Br)cc2Br)c(Br)c1; 6.7
4) C/C(=C/C=C/[C@@H](C)C(=O)O)[C@H]1CN[C@H](C(=O)O)[C@H]1CC(=O)O; 14
5) [CH3][Hg][Cl]; 5.1
6) CC(C)(c1ccc(O)cc1)c1ccc(O)cc1; 33

* * *

System: human iPSC-derived 3D BrainSpheres
assay_explanation: BrainSphere MEA assay (HD-MEA, 13-day exposure, concentration-response)
Assay type: cell-based
test_context: 5th percentile of AC50 values by chemical; above 0.5 = more potent in the rNFA
quantity: Difference of minimum potency between BrainSphere MEA assay and rNFA

1. Brc1ccc(Oc2ccc(Br)cc2Br)c(Br)c1; more than 0.5 log10 µM
2. C/C(=C/C=C/[C@@H](C)C(=O)O)[C@H]1CN[C@H](C(=O)O)[C@H]1CC(=O)O; more than 0.5 log10 µM
3. CC1(C)[C@H](C(=O)O[C@H](C#N)c2cccc(Oc3ccccc3)c2)[C@@H]1C=C(Br)Br; ≤ 0.5 log10 µM
4. [CH3][Hg][Cl]; more than 0.5 log10 µM
5. CC(C)(c1ccc(O)cc1)c1ccc(O)cc1; ≤ 0.5 log10 µM
6. ClC1=C(Cl)[C@]2(Cl)[C@@H]3[C@@H]4C[C@@H]([C@H]5O[C@@H]45)[C@@H]3[C@@]1(Cl)C2(Cl)Cl; more than 0.5 log10 µM

* * *

Test system: human iPSC-derived 3D BrainSpheres
assay_explanation: BrainSphere MEA assay (HD-MEA, 13-day exposure, concentration-response)
Format: cell-based
test_context: tcplfit2 output ACC; activity cutoff in Supplemental Table 1
Kind request: treat 8 µM as inclusive, so ACC Spheroid.Burst.Frequency at 8 µM or higher is rule met, anything lower is rule not met.

1. CC1(C)[C@H](C(=O)O[C@H](C#N)c2cccc(Oc3ccccc3)c2)[C@@H]1C=C(Br)Br; rule not met
2. ClC1=C(Cl)[C@]2(Cl)[C@@H]3[C@@H]4C[C@@H]([C@H]5O[C@@H]45)[C@@H]3[C@@]1(Cl)C2(Cl)Cl; rule met
3. CC(C)(c1ccc(O)cc1)c1ccc(O)cc1; rule met
4. Brc1ccc(Oc2ccc(Br)cc2Br)c(Br)c1; rule met
5. [CH3][Hg][Cl]; rule not met
6. C/C(=C/C=C/[C@@H](C)C(=O)O)[C@H]1CN[C@H](C(=O)O)[C@H]1CC(=O)O; rule not met

* * *

Items are presented alongside their recorded AC50.
Test system: BrainSpheres
assay_explanation: Cytotoxicity evaluation, resazurin assay (BrainSphere.Cyto)
Type: cell-based, human
test_context: Homo sapiens, 312 h, resazurin, day 13; Supplement 3 prints it also for curves with hit call 0; read-out: ac50 BrainSphere.Cyto
Protocol: For the resazurin assay, BrainSpheres were cultured for 7 weeks in non-treated 6-well plates under gyratory shaking. Subsequently, the cells were exposed in the same manner as the HD-MEA plates. […] Then, 100 µl of the media was collected and transferred in a 96-well plate for fluorescence analysis, which was done at ex:530 nm/em:590 nm in a multi-well fluorometric reader CytoFluor series 4000 (PerSeptive Biosystems, Inc). […]
quantity: AC50

1. ClC1=C(Cl)[C@]2(Cl)[C@@H]3[C@@H]4C[C@@H]([C@H]5O[C@@H]45)[C@@H]3[C@@]1(Cl)C2(Cl)Cl [Dieldrin]; 45 µM
2. CCCC(CCC)C(=O)O [Sodium valproate]; 45 µM
3. CC1(C)[C@H](C(=O)O[C@H](C#N)c2cccc(Oc3ccccc3)c2)[C@@H]1C=C(Br)Br [Deltamethrin]; 45 µM
4. CC1(C)S[C@@H]2[C@H](NC(=O)[C@H](N)c3ccc(O)cc3)C(=O)N2[C@H]1C(=O)O [Amoxicillin]; 45 µM
5. CC(C)(c1ccc(O)cc1)c1ccc(O)cc1 [Bisphenol A]; 6.8 µM
